Provenance of the data: ChEMBL document CHEMBL3988442

- Tested on: Trypanosoma cruzi
- Test Summary: Trypanosoma cruzi phosphomannomutase and mannose-1-phosphate guanylyltransferase assay
- Type: functional
- Parameters: scale not given: direction of the effect not stated beside the values
- Details: 10 µM
Measured Metric: Percent Effect (%)
Quick note: give the figure in %, leave out the unit.

Request: For the compound shown here, Cc1ccc2c(c1)CN(C(=O)c1ccccc1F)C(CN(C)C)CO2 (centres undefined) , give the reported Percent Effect.
Result: -5.73

Request: Now consider Cc1nccc([C@H]2C[C@@H]3CCN(S(=O)(=O)N(C)C)C[C@H]3O2)n1 and answer again.
Result: 5.18

###

- System Tested: Tyrosyl-tRNA synthetase, putative (Trypanosoma cruzi (strain CL Brener))
- Test Summary: Trypanosoma cruzi tyrosyl tRNA synthetase (TcYRS) SOP
- Format: functional
- Design: scale not given: direction of the effect not stated beside the values
- Details: 30 µM
Percent Effect listing for selected compounds.
Kindly provide the numeric value in % only, without the unit symbol.

Request: Please give the measured Percent Effect for this compound: Cc1nc(CC(=O)N2CCCCC2c2ccn3ccnc3n2)cs1 (stereo unspecified)
Result: 1.3

Request: Param item: Cc1nc(CN2CCC(CNC(=O)Nc3ccccn3)CC2)oc1C
Result: 11.1

###

- System Tested: Ubiquitin-activating enzyme e1, putative (Leishmania donovani (strain BPK282A1))
- Test Summary: Leishmania donovani Ubiquitin Activating Enzyme (LdE1)
- Format: functional
- Design: scale not given: direction of the effect not stated beside the values
- Details: 30 µM
Entries with a potency or affinity are not part of this list.
Entries annotated with measured Percent Effect
I only need the number, in %, no unit after it.

Request: Which Percent Effect value is on record for COc1ncc(CN2CC[C@@](C)(O)[C@H](Oc3cccc(F)c3)C2)cn1 ?
Result: 9.33

Request: Again, but for CC(C)NC(=O)Nc1ccc(CNCc2cccc(C#N)c2)cc1
Result: 20.8

Request: Follow-up entry: Cc1ccc(OCC(=O)NS(=O)(=O)c2c(C)noc2C)cc1C
Result: -5.13

Request: For N#Cc1cn(C2CC2)c(=O)n(CC(O)c2ccccc2F)c1=O (centres undefined) then?
Result: 21.1

Request: // same read-out, input: COc1ccccc1OCC(=O)NS(=O)(=O)c1ccccc1Br
Result: 13

Others:
Request: Percent Effect for c1ccc2cc(OCCN3CCn4c(nnc4C4CC4)C3)ccc2c1 ?
Result: -18.7

Request: Also, CCc1nc(C2CCCN2C(=O)c2nccnc2N)no1 (centres undefined) please.
Result: -5.13

###

Reported Percent Effect is given for each of the following molecules.
- System: Trypanosoma cruzi
- Test Summary: Trypanosoma cruzi phosphomannomutase and mannose-1-phosphate guanylyltransferase assay
- Format: functional
- Parameters: scale not given: direction of the effect not stated beside the values
- Details: 10 µM
Only the number, expressed in %, is required.

Request: Field request: Percent Effect | item: CCc1noc(CNc2cc(F)ccc2OCC2CCCO2)n1 (stereo unspecified)
Result: -4.83

Request: Now consider CNC(=O)C1(c2cnccn2)CCCN1C(=O)c1ccn(C)n1 (stereo unspecified) .
Result: 0.593

Request: Also Cc1c(F)cccc1CN1CCn2nc(CNC(=O)N(C)C)cc2C1 ?
Result: 9.21

Request: Another: Cc1ccc(C(O)CNCCn2cccn2)cc1C (stereo unspecified)
Result: 0.803

Request: Record: CN(Cc1ccc2c(c1)OCCO2)C(=O)Cn1ccccc1=O
Result: -5.02

As a next step, examine the molecule that follows.
Request: Record request: Percent Effect value, item CC(C)N1CCO[C@H]2CN(C(=O)c3ccc(N(C)C)cc3)C[C@H]21
Result: -6.13

###

- System Tested: Tyrosyl-tRNA synthetase, putative (Trypanosoma cruzi (strain CL Brener)) (UniProt Q4DSP6)
- Sequence (Q4DSP6 as listed by the source): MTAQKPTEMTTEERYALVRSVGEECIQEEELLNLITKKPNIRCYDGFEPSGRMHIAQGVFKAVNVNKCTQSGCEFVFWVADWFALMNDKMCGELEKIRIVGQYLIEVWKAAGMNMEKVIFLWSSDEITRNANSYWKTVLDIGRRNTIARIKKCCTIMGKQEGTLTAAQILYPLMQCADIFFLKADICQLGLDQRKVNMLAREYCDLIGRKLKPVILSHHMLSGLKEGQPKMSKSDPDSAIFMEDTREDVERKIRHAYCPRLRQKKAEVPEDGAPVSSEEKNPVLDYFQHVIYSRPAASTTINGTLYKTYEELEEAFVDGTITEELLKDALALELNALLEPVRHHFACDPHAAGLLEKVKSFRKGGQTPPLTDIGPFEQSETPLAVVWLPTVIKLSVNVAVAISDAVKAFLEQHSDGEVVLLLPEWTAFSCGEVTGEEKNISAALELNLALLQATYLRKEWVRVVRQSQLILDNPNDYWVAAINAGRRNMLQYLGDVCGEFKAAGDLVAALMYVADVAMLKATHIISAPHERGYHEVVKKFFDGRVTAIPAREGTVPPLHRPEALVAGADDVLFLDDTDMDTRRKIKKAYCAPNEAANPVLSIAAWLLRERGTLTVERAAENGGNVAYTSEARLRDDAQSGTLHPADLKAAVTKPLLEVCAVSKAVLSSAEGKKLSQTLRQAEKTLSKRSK
- Test Summary: Trypanosoma cruzi tyrosyl tRNA synthetase (TcYRS) SOP
- Format: functional
- Design: scale not given: direction of the effect not stated beside the values
- Details: 30 µM
Measured Metric: Percent Effect (%)
All answers are understood in %, so give the number only.

Sample answers from the record:
Request: Which measured Percent Effect value corresponds to CCC(NC(N)=O)c1ccccc1OCC(=O)N1CCCC1 (stereo unspecified) ?
Result: 18.1

Request: Follow-up item: O=C1CC(c2ccsc2)c2sc(C(=O)O)c(-c3ccccc3)c2N1 (stereo unspecified)
Result: 12.2

***
Request: So what's the measured Percent Effect for this one? Cc1nc(C)n(CC2CCCN2Cc2cn3c(C)cccc3n2)n1 (stereo unspecified)
Result: 5.13

Request: What do we get for Cc1ccc(CNC2CCN(CCc3ccncc3)CC2)cc1C ?
Result: 8.54

Request: Now the compound Cc1csc(CN2CC[C@H]3C[C@H](c4nnc(C)[nH]4)O[C@@H]3C2)n1
Result: -102

Request: Cool, now CCOCC1CN(Cc2cnn(C)c2)Cc2ncn(CC3CC3)c21 (stereo unspecified)
Result: -5.13

###

- System Tested: Tyrosyl-tRNA synthetase, putative (Trypanosoma cruzi (strain CL Brener)) (UniProt Q4DSP6)
- Test Summary: Trypanosoma cruzi tyrosyl tRNA synthetase (TcYRS) SOP
- Assay type: functional
- Design: scale not given: direction of the effect not stated beside the values
- Details: 30 µM
Measured Metric: Percent Effect (%)
Field format: number, assumed %, no unit text.

Worked cases, Percent Effect given:
Request: I would be grateful if you could share the reported Percent Effect for CCOC(=O)[C@]12CCCN(Cc3nccs3)C[C@H]1CN(C(C)=O)C2 .
Result: 6.41

Request: Further, for Cc1nc(N)cc(C2CN(C(=O)c3ccn(C)n3)CCO2)n1 (centres undefined) ?
Result: 16.9

Request: Also Cc1cc(C)c(CNC(=O)N2CCN(c3cnccn3)CC2)c(=O)[nH]1 ?
Result: 9.76

Request: Okay, and CCc1nc(CN(CC(N)=O)C(C)C)cs1 ?
Result: 21.5

Request: Follow-up entry: Cc1cc(N2CCC(CC(N)=O)CC2)nc(-c2ccncc2)n1
Result: 21.2

Next, consider the following compound.
Request: Query (compound): Cn1c(CNc2c(F)cccc2-n2cccn2)cc(=O)n(C)c1=O ; field requested: Percent Effect
Result: 10.3

###

- System Tested: Sialic acid-binding Ig-like lectin 9 (Homo sapiens) (UniProt Q9Y336)
- Sequence (Q9Y336 whole entry): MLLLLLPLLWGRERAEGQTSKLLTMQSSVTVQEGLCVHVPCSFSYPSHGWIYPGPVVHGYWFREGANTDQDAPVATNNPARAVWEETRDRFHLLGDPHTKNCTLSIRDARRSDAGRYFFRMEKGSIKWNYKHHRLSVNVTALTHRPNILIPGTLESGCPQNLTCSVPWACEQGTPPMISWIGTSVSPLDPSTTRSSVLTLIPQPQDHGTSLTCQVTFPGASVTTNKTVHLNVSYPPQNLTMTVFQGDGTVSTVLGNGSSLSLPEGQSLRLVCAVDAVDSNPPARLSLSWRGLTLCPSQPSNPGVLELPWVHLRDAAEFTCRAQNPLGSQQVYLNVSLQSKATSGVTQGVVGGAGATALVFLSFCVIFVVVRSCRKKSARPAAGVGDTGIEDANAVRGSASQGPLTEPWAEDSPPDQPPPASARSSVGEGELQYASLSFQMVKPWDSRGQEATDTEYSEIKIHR
- Test Summary: Hs-Siglec9 ALPHAscreen SOP 20170721
- Design: scale not given: direction of the effect not stated beside the values
- Details: 10 µM
Here, each record is paired with measured Percent Effect data.
Kindly provide the numeric value in % only, without the unit symbol.

Consider the worked cases shown below.
Request: Recorded Percent Effect for COc1ncc(C2(O)CCN(Cc3cccs3)CC2)c(OC)n1 , please?
Result: -1.28

Request: Also CCN(C)c1ncnc2c1CCN(Cc1ccc(OC)cc1)CC2 ?
Result: -9.08

Request: Another compound to look at: CC(C)CCCNC(=O)Nc1ccc(F)c(C(N)=O)c1
Result: 0.112

Continuing:
Request: Tell me the measured Percent Effect of Cc1nc(NCCc2ccc(Cl)cc2)cc(C(=O)N2CCCCC2)n1 , please.
Result: -0.26

Request: What would you report for CCc1ccc(O)c(C(=O)NC2CCN(S(=O)(=O)CC)CC2)c1 ?
Result: -17.5

###

- System Tested: AMP-activated protein kinase, AMPK (Homo sapiens) (UniProt P54646+O43741+P54619+Q9UGJ0+Q9Y478+Q13131+Q9UGI9)
- Test Summary: AMP-dependent Kinase enzyme assay. An in vitro enzyme assay that detects ADP turnover that is directly proportional to AMPK activity. This uses naive AMPK that is activated during the assay with MK-8722
- Format: functional
- Parameters: scale not given: direction of the effect not stated beside the values
- Details: 30 µM
Below, each of the compounds is paired with its reported Percent Effect value.
Only the number, expressed in %, is required.

Request: Please give the measured Percent Effect for this compound: COCC(=O)N1CCC(c2cccc(Cc3ccc(F)cc3)n2)CC1
Result: 7.38

Request: Query CC(=O)N1CCC2(CC1)COCCN2CCN(C)C next
Result: 0.268

Request: Would you mind doing Cn1cc(CN2CC[C@H](O)[C@@H]2Cc2ccncc2)cn1 as well?
Result: -33.1

Request: Entry Cc1cc(N2CCN(Cc3nccn3C)CC2)cc(C)n1 please
Result: -5.16

Request: Next: O=C(NCCn1ccnc1)NCC(c1ccco1)N1CCCCC1 (centres undefined)
Result: 4.65

Next:
Request: Which Percent Effect value is on record for COCCCN(C)Cc1nc2c(cnn2C)c(=O)[nH]1 ?
Result: -0.426

Request: Also, CN(C)S(=O)(=O)N1C[C@@H](Oc2ccccn2)[C@H]2OCCC[C@H]21 please.
Result: 5.04

Request: Can you check CC(C)(C)c1noc(CN2CCN(C(=O)c3cccs3)CC2)n1 next?
Result: 4.2

Request: Follow-up item: O=C1CCCCN1Cc1cccc(NC(=O)N2CCSCC2)c1
Result: -6.98

Request: Also need COc1cccc2c1ccn2CCC(=O)NCCCC(=O)O , thanks.
Result: 1.22

Request: What would you report for Cc1ccsc1CN(Cc1ccccn1)CC(C)C ?
Result: -11.5

Request: Another compound to check: C1CC(CN2CCO[C@H]3[C@H](OCC4CC4)CC[C@@H]32)CCO1
Result: -2.6

Request: // same read-out, input: CCC(=O)N1CCC2(CC1)COc1ccccc1S(=O)(=O)N(C)C2
Result: -6.69

Request: Let us now turn to CC(C)c1nn(C)c(N(C)C)c1CNCCC(=O)N(C)C
Result: -11.4

Request: Please do the same for Cc1cc(N2CCN(Cc3ccccc3)CC(O)C2)cc(C)n1 (centres undefined) as well.
Result: 1.17

Request: Consider next the compound COc1ccc(COCC(O)CNC(=O)c2cnc(C)cn2)cc1 (centres undefined) in the same way.
Result: 0.227

Request: What would you report for CS(=O)(=O)NC[C@]12COC[C@H]1CN(C(=O)c1ccoc1)C2 ?
Result: 7.55

Request: Query CCOc1ccccc1-c1noc(CN(C)Cc2cnn(C)c2)n1 next
Result: -5.04
